# experimental.protocol: Oral pharmacokinetic study
# Type: in vivo, male Wistar rats
# study.conditions: male, Wistar, rat, plasma; single oral dose 15 mg/kg, n = 3
parameter.measured: Tmax (h)
Kindly answer with a numeric value in h, unit omitted.

What does the data say about its Tmax? Entry: Cc1cc(Nc2ncc(Cl)c(Nc3ccccc3S(=O)(=O)C(C)C)n2)c(OC(C)C)cc1C1CCNCC1
6

###

# Tested on: A549 cells
# experimental.protocol: SRB (sulforhodamine B) cytotoxicity assay
# Type: cell-based
# study.conditions: Homo sapiens, A549; SRB, 48 h incubation; read-out: IC50 value
parameter.measured: pIC50
Units for pIC50: none; it is -log10 of a concentration expressed in mol/L.

Any idea what pIC50 was measured for C[C@@H]1O[C@@H](O[C@H]2[C@H](Oc3cc(O)c4c(c3)O[C@H](c3ccc(O)cc3)CC4=O)O[C@H](CO)[C@@H](O)[C@@H]2O)[C@H](O)[C@H](O)[C@H]1O [NRG, naringin] ?
3.79

###

# experimental.protocol: Oral pharmacokinetic study
# Format: in vivo, male Wistar rats
# study.conditions: male, Wistar, rat, plasma; single oral dose 15 mg/kg, n = 3
parameter.measured: half-life (h)
API: value field is a number in h; no unit string.

Entry Cc1cc(Nc2ncc(Cl)c(Nc3ccccc3S(=O)(=O)C(C)C)n2)c(OC(C)C)cc1C1CCNCC1 : reported half-life = ?
22.1

###

# experimental.protocol: Thermodynamic solubility, shake flask method
# Format: physicochemical
# study.conditions: phosphate buffer 50 mM pH 6.8, 24 h, 37 °C; read-out: thermodynamic solubility of CRT
parameter.measured: solubility thermodynamic at 24 h

Tell me the measured solubility thermodynamic at 24 h of Cc1cc(Nc2ncc(Cl)c(Nc3ccccc3S(=O)(=O)C(C)C)n2)c(OC(C)C)cc1C1CCNCC1 , please.
3.3 µg/mL
